Recorded values, source PubChem BioAssay (NCI).

Experiment: NCI Yeast Anticancer Drug Screen. Data for the cln2 rad14 strain (AID 165)
Details: S. cerevisiae cln2 rad14 strain, at 50.0 µM
About 79,000 compounds went through this panel and 15% of them were active in at least one assay; those are over-represented in the sample as a whole. Activity calls are given as the source filed them. No stated cut-off is given here; in the data, active means growth inhibition above about 70%; inactive means the rest.
The categories you may choose from are active, inactive

Some entries whose results are on file:
>  <compound>
CC(=NCC(=O)O)c1ccccc1

>  <group.label>
inactive

$$$$
>  <compound>
CC(C)c1ccc(/C=C(\NC(=O)c2ccccc2)c2nc3ccccc3[nH]2)cc1

>  <group.label>
active

$$$$
>  <compound>
CN(C)CCNC(=O)C(c1ccccc1)c1ccccc1

>  <group.label>
active

$$$$
>  <compound>
S=c1[nH]nc(Nc2ccccc2Cl)s1

>  <group.label>
inactive

$$$$
>  <compound>
O=[N+]([O-])/C(Br)=C\c1ccc([N+](=O)[O-])cc1

>  <group.label>
active

$$$$
>  <compound>
O=C(OCc1ccccc1CN1CCOCC1)c1ccc(Br)cc1

>  <group.label>
inactive

$$$$
>  <compound>
O=C1c2ccccc2C(=O)N1/N=C\c1ccccc1[N+](=O)[O-]

>  <group.label>
inactive

$$$$
>  <compound>
O=C(/C=C/c1ccccc1)CCN1CCOCC1

>  <group.label>
active

$$$$

Please state the recorded outcome for this compound: O=C(CC1C(=O)c2ccccc2C1=C1C(=O)c2ccccc2C1=O)c1ccccc1 (configuration not stated)
inactive

Please state the recorded outcome for this compound: Cc1cc(-c2ccc(N=Nc3cc(S(=O)(=O)O)c4ccccc4c3N)c(C)c2)ccc1N=Nc1cc(S(=O)(=O)O)c2ccccc2c1N
inactive

Please state the recorded outcome for this compound: N#CC(C#N)=C/C=C/c1c(Cl)cccc1Cl
active

Please state the recorded outcome for this compound: Cc1cc(Br)c(NC(=O)CBr)cc1C
inactive
